# TARGET OR SYSTEM: T1, Y. pestis LcrV protein (Yersinia pestis KIM5, UniProt P0C7U7 1-326)
# T1 construct: also called LcrV antigen
# T1 sequence (P0C7U7 whole entry): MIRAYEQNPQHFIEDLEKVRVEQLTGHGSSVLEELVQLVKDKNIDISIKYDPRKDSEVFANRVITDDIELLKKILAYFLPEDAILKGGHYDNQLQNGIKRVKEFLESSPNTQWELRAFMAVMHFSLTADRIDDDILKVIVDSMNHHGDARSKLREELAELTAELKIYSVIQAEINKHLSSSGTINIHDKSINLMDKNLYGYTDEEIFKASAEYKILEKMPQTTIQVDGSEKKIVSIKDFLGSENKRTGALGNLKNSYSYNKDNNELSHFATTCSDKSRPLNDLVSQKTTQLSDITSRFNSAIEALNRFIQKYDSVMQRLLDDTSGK
# TEST SUMMARY: Microcal (calorimetry)
Would you mind telling me the reported Kd of each entry?
Give bare numbers, in nM.

Look over these answered cases.
INSERT INTO assay_data (binder, units_symbol, measured_result) VALUES
  ('1LCRV28 (VHH) VHH: QVQLQESGGGLVQPGGSLRLSCAASGGTLGYYAIGWFRQAPGKEREAVSCITSSDTSAYYADSAKGRFTISRDNAKNTMYLQMNNLKPEDTAVYYCAAGYYFRDYSDSYYYTGTGMKVWGKGTQVTVSS', 'nM', 0.2),
  ('1LCRV31 (VHH) VHH: QVQLQESGGGLVQPGGSLGLSCAASGSLLNIYAMGWYRQAPGRQRELVATVTSSGTAEYADSVKGRFTISRDNAKNTVYLQMNSLRPEDTGVYYCNAHLRYGDYVRGPPEYNYWGQGTQVTVSS', 'nM', 0.76),
  ('1LCRV13 (VHH) VHH: QVQLQESGGGLVRPGGSLKLSCAASGFTFNWYTMAWYRQVPGEERKMVATITGASGDTKYADSVKGRFTISRDNAKNTVTLQMNSLKPGDTAVYYCHAYLTYDSGSVKGVNYWGQGTQVTVSS', 'nM', 3.2);

query: // lookup Kd for 1LCRV32 (VHH) VHH: QVQLQESGGGMVEPGGSLRLSCAASGFRFSSYAMSWVRQAPGKGLERVSAINSDGDKTSYADSVKGRFTISRDNARNTLYLQMSNLKPEDTAVYYCADRDLYCSGSMCKDVLGGARYDFRGQGTQVTVSS
result: 26
